As shown below, each of these compounds has a reported GI50 value.
test system: SK-OV-3; assay: NCI tumour cell line growth inhibition, 48 h
Activity calls are given as the source filed them. Rule as the data show it: active = GI50 up to about 1.1 µM and inactive = higher.
assay_metric: GI50

CCOC(=O)C(Cc1cc(OC)c(CC(C(=O)OCC)C(=O)OCC)cc1OC)C(=O)OCC ... > 93.8 µM (inactive)
c1ccc2sc(C3(N4CCCC4)CCCCCC3)cc2c1 ... 16.8 µM (inactive)
Nc1nc2cc(CNc3ccc(C(=O)O)cc3)ccc2nc1-c1ccccc1 ... > 100 µM (inactive)
Cc1ccc(-c2n[nH]c(=O)n2/N=C\c2ccccc2O)cc1 ... 81.3 µM (inactive)
Clc1ccc(C2SCc3nc4ccccc4n32)cc1Cl (stereo unspecified) ... 21.4 µM (inactive)
CC(O)CNC1=CC(=O)C(=O)c2ccccc21 (stereo unspecified) ... 34.5 µM (inactive)
CCCc1ccc(/N=C\c2cc(OC)c(OC)c(OC)c2)cc1 ... > 100 µM (inactive)
CC1(C)CC(=O)C2=C(C1)N(c1ccccc1)C1(O)C=CC(O)=C3C(=O)c4ccccc4C(=O)C321 (stereo unspecified) ... 88.9 µM (inactive)
CCCCc1ccc(N2C(=O)c3cc(C)cnc3S2(=O)=O)cc1 ... 63.2 µM (inactive)
Cc1cc(Cl)ccc1NC(=O)C(=O)C(C(=O)c1ccccc1)C1OC(=O)c2ccccc21 (stereo unspecified) ... > 100 µM (inactive)
COC(=O)C1OC(O[C@H]2CC[C@]3(C)[C@H]4CC=C5[C@@H]6CC(C)(C)CC[C@]6(C(=O)OC6OCC(O)C(O)C6OC6OC(C)C(OC7OCC(O)C(O)C7O)C(OC7OCC(O)(CO)C7O)C6O)[C@H](O)C[C@@]5(C)[C@]4(C)CC[C@H]3C2(C)C)C(O)C(O)C1O (stereo partly specified) ... 12.2 µM (inactive)

###

test system: SK-MEL-5; assay: NCI tumour cell line growth inhibition, 48 h
Active and inactive are the calls of the source. No stated cut-off is given here; in the data, active = GI50 up to about 1.1 µM and inactive = higher.
Outcome codes: active, inactive

Cc1ccc(C2(C)NC(=S)N(NC(N)=S)C2=S)cc1 (stereo not drawn) ... inactive
Cc1ccc(C2=Nc3c(N)nc(N)nc3NC(c3ccccc3)C2)cc1 (stereo not drawn) ... inactive
CCNC(=O)OCC1C2=C(C(=O)C(C)=C(N)C2=O)N2CC3C(N3C)C12OC (stereo not drawn) ... inactive
Nc1nc(Cl)cc(NCCCCCCCCCCCCNc2cc(Cl)nc(N)n2)n1 ... active
COC(=O)c1ccc2c(c1)CCN2C(=O)c1cc2c(cc1Br)OCO2 ... active
O=C1c2cccnc2C(=O)C2C3C=CC(C3)C12 (stereo not drawn) ... inactive
C#CCn1c(=O)c(C)cn(/C(=C\C(=O)OCC)C(=O)OCC)c1=O ... inactive
CC(=O)OCCn1c(Cc2ccc([N+](=O)[O-])cc2)nn(C(C)=O)c1=O ... inactive
COC(=O)/C(C#N)=C(/NCc1ccccc1)Nc1ccccc1 ... inactive
O=[PH]1c2ccccc2Nc2ccccc21 ... inactive
N=C(Cc1ccccc1)NCC(=O)O ... inactive
Cc1ccc(-c2cc(-c3ccc(Cl)cc3)nc(/N=C3\C(=O)N(CN4CCCCC4)c4ccc(Cl)cc43)n2)cc1 ... inactive
[N-]=[N+]=CC(=O)c1ccccc1C#CCCc1ccccc1 ... inactive
Cc1c(O)nc(-n2[nH]c3c(c2=O)CCCC3)[nH]c1=O ... inactive
Cc1cc(S(=O)(=O)N/C(=N/N)NCCc2ccccc2)c(S)cc1Cl ... inactive
COC(=O)C1CCC(=S)N1C(=O)c1ccccc1 (stereo not drawn) ... inactive
Cc1sc(Nc2ccc(Nc3nc(-c4ccccc4)c(C)s3)cc2)nc1-c1ccccc1 ... inactive
Cc1cc(C)n(C2=NS(=O)(=O)c3ccccc3N2C)n1 ... inactive
C=C1C(=O)OC2CC(C)C(C(O)CC(C)O)=CCC12 (stereo not drawn) ... inactive
COc1ccc(C23C(=O)c4ccccc4N2O[C@H]2C(=O)N(c4ccccc4)C(=O)[C@H]23)cc1 (stereo partly drawn) ... inactive
NNC(=O)Nc1nc2ccc(NN)cc2[nH]1 ... inactive
CC(C)Oc1c(C2(c3ccccc3O)SCCCS2)c(=O)c1=O ... inactive
O=C1CCC2(CCC(=O)NC2=O)C(=O)N1 ... inactive
